- System: MCF-7
- METHOD NOTES: MTT anti-proliferative assay toward MCF-7
- CONDITION DESCRIPTION: Homo sapiens, MCF7, 48 h, read-out: IC50 toward MCF-7
MEASURED PARAMETER: IC50 (µM)
# value in µM; strip the unit string

INSERT INTO results (compound, tested_system, measured_parameter, measured_number) VALUES
  ('COc1ccc(C2CC(c3ccc(OC)c(OC)c3)=NN2C2=NC(=O)C(=NNc3ccc(S(N)(=O)=O)cc3)S2)cc1 (stereo not drawn)', 'MCF-7', 'IC50', 27.3),
  ('COc1ccc(C2CC(c3ccc(OC)c(OC)c3)=NN2c2nc(C)c(N=Nc3ccc(Cl)cc3)s2)cc1 (stereo not drawn)', 'MCF-7', 'IC50', 18.6);

Please look at the following compound next.
Q) # input compound: CS(=O)(=O)CCNCc1ccc(-c2ccc3ncnc(Nc4ccc(OCc5cccc(F)c5)c(Cl)c4)c3c2)o1 [Lapatinib, reference compound] ; wanted: its IC50
A) 5.88
